- methodDescription: Caspase-3/7 induction in CHO-K1 cells by small molecules, qHTS cell viability counter screen (AID 1346979); further: nearly all actives have a fitted effect of over 35% in size
- conditionNotes: CellTiter-Fluor fluorescence, 17 h; series mostly up to 92.4 µM
Results filed as inconclusive are left out. Activity calls are given as the source filed them. The call rests on the fitted dose curve; in most records, active means well fitted cell-killing curve with a large enough effect in the repeat runs; inconclusive means weak or mixed curves, or effect the other way; inactive means no such curve, though single readings can be large or run the other way.

| compound | outcome |
| --- | --- |
| CN(N=O)C(N)=O | inactive |
| O=c1oc2ccccc2c(O)c1C1CCCc2ccccc21 (stereo not drawn) | inactive |
| C[C@@H]1CN(C2CCC(C#N)(c3ccc(F)cc3)CC2)CC[C@]1(C(=O)O)c1ccccc1 (stereo partly drawn) | inactive |

* * *

- methodDescription: qHTS assay to identify small molecule agonists of the retinoic acid receptor (RAR) signaling pathway (AID 1159553)
- conditionNotes: C3RL4 RARE luciferase reporter, agonist, 6 h; series mostly up to 73.3 µM
Records with an inconclusive call do not appear. Activity calls are given as the source filed them. The call rests on the fitted dose curve; in most records, active means well fitted activation curve with a large enough effect in the repeat runs; inconclusive means weak or mixed curves, or effect the other way; inactive means no such curve, though single readings can be large or run the other way.
Labels: 1 for active, -1 for inactive

| compound | group |
| --- | --- |
| O=C(N[C@H]1CN2CCC1CC2)c1cc2ccoc2cn1 | -1 |
| C[C@]12CC[C@H]3[C@@H](CC=C4C[C@@H](O)CC[C@@]43C)[C@@H]1CC[C@@H]2O | -1 |
| CCN(CC)C(=O)[C@@H]1C=C2c3cccc4[nH]cc(c34)C[C@H]2N(C)C1 | -1 |
| CC(C)(C)C(=O)C(Oc1ccc(Cl)cc1)n1cncn1 (configuration not stated) | -1 |
| C#CCN1C(=O)COc2cc(F)c(N3C(=O)C4=C(CCCC4)C3=O)cc21 | -1 |
| O=[N+]([O-])c1ccc(CBr)cc1 | -1 |
| c1cc[c]([Hg][c]2ccccc2)cc1 | 1 |
| CCCSP(=S)(OCC)Oc1ccc(Cl)cc1Cl (configuration not stated) | -1 |
| CC1(C)COP(Oc2ccccc2)OC1 | -1 |
| CC(C)CC#N | -1 |
| C[N+](C)=CCl | -1 |
| CCC(C)(C)c1cc(-n2nc3ccccc3n2)c(O)c(C(C)(C)CC)c1 | -1 |
| CSc1ccc(C(=O)C(C)(C)N2CCOCC2)cc1 | -1 |
| Cc1nnc2n1-c1sc(CCC(=O)N3CCOCC3)cc1C(c1ccccc1Cl)=NC2 | -1 |
| N#CC(Cl)(Cl)Cl | -1 |
| C=CC1CC=CCC1 (configuration not stated) | -1 |
| CCCSP(=O)(OCC)Oc1ccc(Br)cc1Cl (configuration not stated) | -1 |
| O=[N+]([O-])c1cccc2cccnc12 | -1 |
| CC1COC2(c3ccccc3Cl)c3cc(Cl)ccc3NC(=O)CN12 (configuration not stated) | -1 |
| N#Cc1ccncc1 | -1 |
| Cc1cnc[nH]1 | -1 |
| CCOP(=S)(Oc1cnc(C(C)(C)C)nc1)OC(C)C (configuration not stated) | -1 |

* * *

- methodDescription: qHTS RealTime-Glo MT Cell Viability Assay in HepG2 cells - 24 hour (AID 1224867); further: nearly all actives have a fitted effect of over 50% in size
- conditionNotes: RealTime-Glo luminescence; series mostly up to 76.8 µM
Results filed as inconclusive are left out. Calls of active or inactive are those of the source. Calls follow the shape of the dose curve; as a rule, active = well fitted cell-killing curve with a large enough effect in the repeat runs; inconclusive = weak or mixed curves; inactive = flat fitted curve, though single readings scatter.
Labels: 1 (yes) = active, 0 (no) = inactive

| molecule | group |
| --- | --- |
| CC1(C)C(=O)NC(=O)NC1=O | 0 (no) |
| N#CC(CCc1ccc(Cl)cc1)(Cn1cncn1)c1ccccc1 (stereo not drawn) | 1 (yes) |
| ClC(Cl)Br | 0 (no) |
| CCS(=O)(=O)C(C)(C)S(=O)(=O)CC | 0 (no) |
| COc1cc(OC)nc(Sc2cccc(Cl)c2C(=O)O)n1 | 0 (no) |
| O=[N+]([O-])c1ccc2c3c(cccc13)CC2 | 0 (no) |
| CCOP(=O)(OCC)OP(=O)(OCC)OCC | 0 (no) |
| OC(c1ccc(F)cc1)(c1cncnc1)c1ccccc1Cl (stereo not drawn) | 0 (no) |
| COC(=O)c1c(C(F)F)nc(C(F)(F)F)c(C2=NCCS2)c1CC(C)C | 0 (no) |
| COc1cc2c(cc1OC)[C@@]13CCN4CC5=CCO[C@H]6CC(=O)N2[C@H]1[C@H]6[C@H]5C[C@H]43 | 0 (no) |
| O=C1OC(CCN2CCCCC2)OC1(c1ccccc1)c1ccccc1 (stereo not drawn) | 0 (no) |
| Clc1ccccc1N1CCNCC1 | 0 (no) |
| CC1=C(C(=O)Nc2ccccc2)S(=O)(=O)CCO1 | 0 (no) |
| c1ccc(N2CCNCC2)cc1 | 0 (no) |
| CCOC(=O)CP(=O)(OCC)OCC | 0 (no) |
| CC(Cl)(Cl)[N+](=O)[O-] | 0 (no) |
| CNC(=O)Oc1ccc(N(C)C)c(C)c1 | 0 (no) |
| CC1(C)CON(Cc2ccccc2Cl)C1=O | 0 (no) |
| BrCCCCCCBr | 0 (no) |
| CC(=O)Nc1cc([As](=O)(O)O)ccc1O | 0 (no) |
| NC(=S)C(N)=S | 0 (no) |
| C[C@]1(O)CC[C@H]2[C@@H]3CCC4=CC(=O)CC[C@]4(C)[C@@]3(F)[C@@H](O)C[C@@]21C | 0 (no) |
| O=C(CCN1CC1)OCC(CO)(COC(=O)CCN1CC1)COC(=O)CCN1CC1 | 0 (no) |

* * *

- methodDescription: qHTS assay to identify small molecule antagonists of the sonic hedgehog signaling (Shh) pathway (AID 1259369); further: nearly all actives have a fitted effect of over 45% in size
- conditionNotes: NIH/3T3 Gli1-Luc reporter, Shh antagonist, luminescence 24 h; series mostly up to 92.4 µM
Inconclusive results are not listed. Activity calls are given as the source filed them. The call rests on the fitted dose curve.
measuredProperty: outcome

| compoundStructureString | measuredProperty | result |
| --- | --- | --- |
| O=C(Cc1ccccc1)OCc1ccccc1 | outcome | inactive |
| CC(=O)C(Cl)Cl | outcome | inactive |
| CCCSC(=O)N(CCC)CCC | outcome | inactive |

* * *

- methodDescription: qHTS assay to identify small molecule agonists of the estrogen receptor beta (ER-beta) signaling pathway - cell viability counter screen (AID 1259380); further: nearly all actives have a fitted effect of over 30% in size; further: potency means the concentration at half of the fitted maximal effect
- conditionNotes: ER-beta-bla HEK293T viability, CellTiter-Glo luminescence, 16 h; series mostly up to 92.4 µM
- From the text: National Center for Advancing Translational Sciences [NCATS] NIH Chemical Genomics Center [NCGC] U.S. Environmental Protection Agency [EPA] National Institutes of Environmental Health Sciences [NIEHS] National Toxicology Program [NTP] U.S. Food and Drug Administration [FDA] Estrogen receptor (ER), a nuclear hormone receptor, plays an important role in development, metabolic homeostasis and reproduction. […]
Results filed as inconclusive are left out. Calls of active or inactive are those of the source. The call rests on the fitted dose curve; in most records, active means well fitted cell-killing curve with a large enough effect in the repeat runs; inconclusive means weak or mixed curves, or effect the other way; inactive means flat fitted curve, though single readings scatter.

| molecule | Potency |
| --- | --- |
| CCCCCCBr | inactive |
| Cc1ncc2n1-c1ccc(Cl)cc1C(c1ccccc1F)=NC2 | inactive |
| C=CC1CC=CCC1 (stereo not drawn) | inactive |
| O=[N+]([O-])c1ccc(CBr)cc1 | inactive |
| COc1cccc(C(=O)NN(C(=O)c2cc(C)cc(C)c2)C(C)(C)C)c1C | inactive |
| CCCCCCI | inactive |
| CN1C(=S)CN=C(c2ccccc2)c2cc(Cl)ccc21 | inactive |
| CCS(=O)(=O)C(C)(C)S(=O)(=O)CC | inactive |
| OCCSCSCCO | inactive |
| CCCCc1c(C)nc(NCC)[nH]c1=O | inactive |
| OC(c1ccccc1)(c1ccccc1)C1CCNCC1 | inactive |
| CCOC(=O)/C=C(C)/C=C/C[C@@H](C)CCCC(C)C | 43.3 µM (active) |
| CC(=O)C(Cl)Cl | inactive |
| O=[N+]([O-])c1cccc2c([N+](=O)[O-])cccc12 | 10.9 µM (active) |
| CC(Cl)(Cl)[N+](=O)[O-] | inactive |
| C[C@H]1CCC[C@H](O)CCCCCc2cc(O)cc(O)c2C(=O)O1 | inactive |
| O=C1CN2CCOC2(c2ccccc2Cl)c2cc(Cl)ccc2N1 (stereo not drawn) | inactive |
| CCC(=O)c1ccccc1 | inactive |
| c1cc2c(c(N3CCNCC3)c1)OCCO2 | inactive |
| CCS(=O)(=O)CCSP(=O)(OC)OC | inactive |
| CC(=O)CC(c1ccc(Cl)cc1)c1c(O)c2ccccc2oc1=O (stereo not drawn) | inactive |
| O=[N+]([O-])c1cc(Cl)c(Cl)c(Cl)c1 | inactive |
| N#CCNCC#N | inactive |
| Cc1cccc(C#N)c1 | inactive |
| COC(C)(C)C | inactive |
| CCN(CC)C(C)C(=O)c1ccccc1 (stereo not drawn) | inactive |
| [Cl][Sn]([Cl])([Cl])[Cl] | inactive |
| CCC1(c2ccccc2)C(=O)N=C(O)NC1=O (stereo not drawn) | inactive |
| O=C(O)C(Br)CBr (stereo not drawn) | inactive |
| COCC(=O)N(c1c(C)cccc1C)N1CCOC1=O | inactive |
| c1cc[c]([Hg][c]2ccccc2)cc1 | inactive |
| CNC(=O)Oc1ccccc1C1OCCO1 | inactive |
| O=P(O)(Oc1ccccc1)Oc1ccccc1 | inactive |
| NC(=O)c1cc([N+](=O)[O-])cc([N+](=O)[O-])c1 | inactive |
| CCCCOC(=O)[C@@H](C)Oc1ccc(Oc2ccc(C#N)cc2F)cc1 | inactive |
| Cc1cc(C)c(C(=O)P(=O)(C(=O)c2c(C)cc(C)cc2C)c2ccccc2)c(C)c1 | inactive |
| CN/C(=N\[N+](=O)[O-])NCC1CCOC1 (stereo not drawn) | inactive |
| CN(N=O)C(N)=O | inactive |
| CNNC | inactive |
| CCCSC(=O)Cl | inactive |
| CCN(CC)CCOC(=O)C(C)(c1ccccc1)c1ccccc1 | inactive |
| CC1(C(=O)Nc2ccc(O)c(Cl)c2Cl)CCCCC1 | inactive |
| Cc1cc(C)nc(Nc2ccccc2)n1 | inactive |
| CCCCOP(=O)(O)OCCCC | inactive |
| ClCC(Cl)Cl | inactive |
| CCSC(=O)N(CC)C1CCCCC1 | inactive |
| CN(C)CCc1ccc(O)cc1 | inactive |
| CCNc1nc(NC(C)C)nc(OC)n1 | inactive |

This collection of values is drawn from PubChem BioAssay (Tox21).
